Tgt: T1, Rb^P T620M (human, UniProt P06400 380-788, T620M)
T1 construct: also called variant 40
T1 sequence (looked up): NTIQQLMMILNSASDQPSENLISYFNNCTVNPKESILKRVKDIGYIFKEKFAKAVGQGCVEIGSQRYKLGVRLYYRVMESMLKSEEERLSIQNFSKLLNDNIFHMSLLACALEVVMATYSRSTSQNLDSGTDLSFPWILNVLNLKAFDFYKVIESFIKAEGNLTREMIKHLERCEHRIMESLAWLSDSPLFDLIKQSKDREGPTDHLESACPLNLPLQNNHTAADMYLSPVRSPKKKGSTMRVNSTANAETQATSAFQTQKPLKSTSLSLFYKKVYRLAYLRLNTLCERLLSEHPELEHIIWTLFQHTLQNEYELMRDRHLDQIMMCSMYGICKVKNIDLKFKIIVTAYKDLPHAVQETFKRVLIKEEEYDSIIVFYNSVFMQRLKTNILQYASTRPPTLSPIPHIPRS
Test: fluorescence polarisation; 37 °C, after the 25 °C reading ramped over 7 min to 37 °C and 2 min incubation; unlabeled Rb^P against 1.5 nM TMR-E2F1^TD or 7.5 nM TMR-E7^LxCxE; 25 mM Tris pH 8.0, 200 mM NaCl, 1 mM DTT, 0.1% Tween-20; apparent Kd
Run Conditions: both partners purified
No end group written: not given here. TMR = tetramethyl rhodamine dye
Parameter: pKd
Lab note: report pKd as minus log10 of the concentration in molar units, number only.

What does the data say about its pKd? Entry: DLYCYEQLN (also: TMR label, position not given here, source: synthetic peptide, bought: GenScript) [TMR-E7^LxCxE, LxCxE peptide of the E7 oncoprotein from HPV] 7.82

Let us examine a further case.
What does the data say about its pKd? Entry: {TMR}-GEGIRDLFDCDFGDLTPLD (also called E2F^TD; source: synthetic peptide, bought: GenScript) [TMR-E2F1^TD, peptide of the E2F1 transactivation domain] 7.23

// data source = paper PMC11931385
